// provenance: the supplement of paper PMC10567573

B1: MAGEA6 (parent)
chain: KISGGPRISYPLLHEWALREGEE

Variants of: B1
METHOD: protein stability index of a GFP-peptide fusion (GPS, HEK-293T) (PSI 1-6); higher = more stable;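 note: lentivirally expressed fusions sorted by FACS into six bins by GFP to DsRed ratio, PSI derived from sequencing read proportions per bin multiplied by bin number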
SETUP_CONDITIONS: c terminus: native
Rule: protein stability index of 3 or more gives satisfied; anything lower gives not satisfied.

[
  {
    "CHANGE": "E20W",
    "CAT": "not satisfied"
  },
  {
    "CHANGE": "R19T",
    "CAT": "satisfied"
  },
  {
    "CHANGE": "G5C",
    "CAT": "satisfied"
  },
  {
    "CHANGE": "G21Y",
    "CAT": "not satisfied"
  },
  {
    "CHANGE": "H14P",
    "CAT": "satisfied"
  },
  {
    "CHANGE": "I2D",
    "CAT": "satisfied"
  },
  {
    "CHANGE": "S3M",
    "CAT": "not satisfied"
  },
  {
    "CHANGE": "E20N",
    "CAT": "not satisfied"
  }
]
